As shown below, each of these compounds has a reported pIC50 value.
# assayed-system: Cytochrome P450 2D6 (Homo sapiens, UniProt P10635)
# Sequence (P10635 whole entry): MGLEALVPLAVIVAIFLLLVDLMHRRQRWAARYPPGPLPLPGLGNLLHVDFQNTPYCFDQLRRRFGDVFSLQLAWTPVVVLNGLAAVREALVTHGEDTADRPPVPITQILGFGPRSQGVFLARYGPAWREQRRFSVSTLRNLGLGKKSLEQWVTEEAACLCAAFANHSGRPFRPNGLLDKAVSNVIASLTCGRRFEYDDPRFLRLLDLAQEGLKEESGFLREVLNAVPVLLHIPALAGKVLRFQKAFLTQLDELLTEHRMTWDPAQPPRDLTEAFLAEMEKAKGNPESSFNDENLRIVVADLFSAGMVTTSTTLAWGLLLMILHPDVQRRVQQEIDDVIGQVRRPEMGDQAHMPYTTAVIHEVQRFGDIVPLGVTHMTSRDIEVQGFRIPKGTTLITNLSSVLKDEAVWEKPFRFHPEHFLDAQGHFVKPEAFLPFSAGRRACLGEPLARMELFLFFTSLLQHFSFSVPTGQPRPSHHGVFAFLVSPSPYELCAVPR
pIC50: −log10 of the molar value.

Some solved entries appear below for comparison.
compound	assayed-system	pIC50
CN([C@@H]1CCc2c(c3nccnc3n2CC(=O)O)C1)S(=O)(=O)c1ccc(F)cc1	Cytochrome P450 2D6 (Homo sapiens, UniProt P10635)	< 4.52
CN([C@@H]1CCc2c(CC(=O)O)c3ccccn3c2C1)S(=O)(=O)c1ccc(F)cc1	Cytochrome P450 2D6 (Homo sapiens, UniProt P10635)	< 4.52
CN([C@@H]1CCc2c(CC(=O)O)c3ncccc3n2C1)S(=O)(=O)c1ccc(F)cc1	Cytochrome P450 2D6 (Homo sapiens, UniProt P10635)	< 4.52

[Q] Under Cytochrome P450 2D6 (Homo sapiens, UniProt P10635): pIC50 value of Cc1c(Cc2ccc3ccccc3n2)c2cc(F)ccc2n1CC(=O)O [TIMAPIPRANT] ?
[A] < 4.52

[Q] So what pIC50 did CN(C)c1nc(Cc2ccc(NC(=O)c3ccc(C(F)(F)F)cc3)cc2)nc(N(C)C)c1CC(=O)O [BI-671800] get with Cytochrome P450 2D6 (Homo sapiens, UniProt P10635)?
[A] < 4.52
